assay: Haemolytic activity determination; type: cell-based; settings: 0.1%, positive control, human RBCs, 37 °C, 30 min; read-out: Haemolysis (%)
metric.name: hemolysis at 30 min, 0.1 % (%)

>>> recorded_value("CC(C)(C)CC(C)(C)c1ccc(OCCO)cc1 [Triton-X, reference compound]")
99.8

----------
Each record here notes measured melting point.
metric.name: melting point (°C)

>>> recorded_value("CCN(CC)c1ccc(-n2c(-c3[nH]cnc3C)n[nH]c2=S)cc1 [26b]")
147
>>> recorded_value("Cc1nc[nH]c1-c1n[nH]c(=S)n1Cc1ccccc1 [27b]")
229.5
>>> recorded_value("Cc1nc[nH]c1-c1n[nH]c(=S)n1-c1ccc(I)cc1 [12b]")
290
>>> recorded_value("Cc1nc[nH]c1-c1n[nH]c(=S)n1-c1ccc(Cl)cc1 [6b]")
255.8
>>> recorded_value("Cc1nc[nH]c1-c1n[nH]c(=S)n1-c1ccc(Br)cc1 [9b]")
265.9
>>> recorded_value("Cc1nc[nH]c1-c1n[nH]c(=S)n1-c1ccccc1Cl [4b]")
243.4
>>> recorded_value("Cc1nc[nH]c1-c1n[nH]c(=S)n1-c1ccc(N(C)C)cc1 [25b]")
288.2
>>> recorded_value("CC(=O)c1cccc(-n2c(-c3[nH]cnc3C)n[nH]c2=S)c1 [23b]")
151.9
>>> recorded_value("Cc1nc[nH]c1-c1n[nH]c(=S)n1-c1ccccc1Br [7b]")
235.6
>>> recorded_value("COc1ccc(-n2c(-c3[nH]cnc3C)n[nH]c2=S)cc1OC [21b]")
213.4

Data origin: paper PMC9518248
